Below, each of the compounds is paired with its reported IC50 value.
- Tested system: [35S]-TBPS binding in rat brain cortical membranes
- Assay procedure: Steroid inhibition of [35S]-TBPS binding, rat brain cortical membranes
- Run parameters: 3 nM [35S]-TBPS, in the presence of 5 μM GABA, read-out: 35S-TBPS Radioligand Displacement (IC50)
Readout name: IC50

| Record smiles | Recorded result |
| --- | --- |
| COC[C@]12CC[C@@](C)(O)C[C@@H]1CC[C@H]1[C@@H]3CC[C@H](C(=O)CN4CCOCC4)[C@@]3(C)CC[C@@H]12 | > 500 nM |
| COC[C@]12CC[C@@](C)(O)C[C@@H]1CC[C@H]1[C@@H]3CC[C@H](C(=O)Cn4ncc5nccnc54)[C@@]3(C)CC[C@@H]12 | 50 to 100 nM |
| COC[C@]12CC[C@@](C)(O)C[C@@H]1CC[C@H]1[C@@H]3CC[C@H](C(=O)Cn4nnc5c(F)c(F)ccc54)[C@@]3(C)CC[C@@H]12 | 10 to 50 nM |

====

- Tested system: GABAA receptors composed of the α4β3δ subunits (GABRA4/GABRB3/GABRD) (Homo sapiens, UniProt P28472+P48169)
- Construct: expressed in transfected cells; host or cells: Xenopus laevis oocytes, injected (ratio 5:1:5)
- Sequence (P48169 36-554): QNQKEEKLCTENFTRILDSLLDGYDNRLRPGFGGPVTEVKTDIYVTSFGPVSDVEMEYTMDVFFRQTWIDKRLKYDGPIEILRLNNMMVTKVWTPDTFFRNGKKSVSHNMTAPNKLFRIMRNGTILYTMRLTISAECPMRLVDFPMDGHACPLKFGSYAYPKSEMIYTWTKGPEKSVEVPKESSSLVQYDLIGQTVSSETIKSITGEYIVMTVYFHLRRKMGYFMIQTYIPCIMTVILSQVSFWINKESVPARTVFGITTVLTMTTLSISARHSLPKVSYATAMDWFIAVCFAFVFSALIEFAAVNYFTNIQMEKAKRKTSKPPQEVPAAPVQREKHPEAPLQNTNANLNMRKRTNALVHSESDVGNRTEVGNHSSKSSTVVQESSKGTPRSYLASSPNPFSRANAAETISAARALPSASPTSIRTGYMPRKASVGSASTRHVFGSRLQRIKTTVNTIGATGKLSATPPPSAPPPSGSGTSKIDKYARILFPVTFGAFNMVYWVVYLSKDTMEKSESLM
- Sequence (P28472 26-473): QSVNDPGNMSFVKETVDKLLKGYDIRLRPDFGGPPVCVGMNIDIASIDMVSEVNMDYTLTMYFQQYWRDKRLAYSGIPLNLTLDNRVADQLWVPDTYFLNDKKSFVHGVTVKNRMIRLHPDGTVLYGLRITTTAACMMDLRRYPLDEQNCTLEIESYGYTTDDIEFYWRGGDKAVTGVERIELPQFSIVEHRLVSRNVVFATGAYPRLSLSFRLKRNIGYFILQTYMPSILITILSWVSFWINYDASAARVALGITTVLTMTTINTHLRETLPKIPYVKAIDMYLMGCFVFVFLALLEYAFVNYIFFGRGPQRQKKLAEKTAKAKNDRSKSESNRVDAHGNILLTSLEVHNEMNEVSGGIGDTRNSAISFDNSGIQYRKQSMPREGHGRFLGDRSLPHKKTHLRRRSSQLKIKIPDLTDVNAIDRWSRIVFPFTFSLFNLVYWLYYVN
- Sequence (O14764 25-452 partner): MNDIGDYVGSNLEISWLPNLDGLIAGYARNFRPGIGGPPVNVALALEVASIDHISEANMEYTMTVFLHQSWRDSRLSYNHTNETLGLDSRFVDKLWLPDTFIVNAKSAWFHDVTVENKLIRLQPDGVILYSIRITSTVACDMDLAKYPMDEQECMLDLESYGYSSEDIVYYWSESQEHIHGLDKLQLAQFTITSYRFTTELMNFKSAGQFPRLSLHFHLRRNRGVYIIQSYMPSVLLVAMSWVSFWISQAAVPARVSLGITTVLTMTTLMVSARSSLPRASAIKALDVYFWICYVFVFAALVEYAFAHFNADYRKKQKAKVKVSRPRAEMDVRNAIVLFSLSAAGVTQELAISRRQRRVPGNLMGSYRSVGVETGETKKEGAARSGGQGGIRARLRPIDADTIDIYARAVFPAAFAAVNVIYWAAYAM
- Assay procedure: Two Electrode Voltage Clamp (TEVC), GABA receptor potentiation in Xenopus laevis oocytes, α4β3δ
- Type: cell-based
- Run parameters: 10 μM compound, 3 μM GABA, read-out: GABA (α4β3δ) % efficacy at 10 μM
Each entry below carries its recorded Emax at 10 µM.

| Molecule | Emax at 10 µM |
| --- | --- |
| COC[C@]12CC[C@@](C)(O)C[C@@H]1CC[C@H]1[C@@H]3CC[C@H](C(=O)Cn4cc5cc(Cl)ccc5n4)[C@@]3(C)CC[C@@H]12 [Compound 106] | 1000 to 1500% |
| COC[C@]12CC[C@@](C)(O)C[C@@H]1CC[C@H]1[C@@H]3CC[C@H](C(=O)Cn4nnc5c(OC)cc(OC)cc54)[C@@]3(C)CC[C@@H]12 [Compound 66] | 1000 to 1500% |
| COC[C@]12CC[C@@](C)(O)C[C@@H]1CC[C@H]1[C@@H]3CC[C@H](C(=O)Cn4nc5ccc(OC)c(OC)c5n4)[C@@]3(C)CC[C@@H]12 [Compound 64] | 500 to 1000% |
| COC[C@]12CC[C@@](C)(O)C[C@@H]1CC[C@H]1[C@@H]3CC[C@H](C(=O)Cn4ncc5cc(Cl)ccc54)[C@@]3(C)CC[C@@H]12 [Compound 105] | 1000 to 1500% |
| COC[C@]12CC[C@@](C)(O)C[C@@H]1CC[C@H]1[C@@H]3CC[C@H](C(=O)Cn4nc5cccc(OC)c5n4)[C@@]3(C)CC[C@@H]12 [Compound 57] | 500 to 1000% |

====

Readout name: melting point

| Record smiles | Readout name | Recorded result |
| --- | --- | --- |
| COC[C@]12CC[C@@](C)(O)C[C@@H]1CC[C@H]1[C@@H]3CC[C@H](C(=O)Cn4ccnn4)[C@@]3(C)CC[C@@H]12 | melting point | 72 to 74 °C |
| COC[C@]12CC[C@@](C)(O)C[C@@H]1CC[C@H]1[C@@H]3CC[C@H](C(=O)Cn4cnnn4)[C@@]3(C)CC[C@@H]12 | melting point | 88 to 91 °C |
| COC[C@]12CC[C@@](C)(O)C[C@H]1CC[C@H]1[C@@H]3CC[C@H](C(=O)Cn4cc(Cl)cn4)[C@@]3(C)CC[C@@H]12 | melting point | 163 to 165 °C |
| COC[C@]12CC[C@@](C)(O)C[C@@H]1CC[C@H]1[C@@H]3CC[C@H](C(=O)Cn4cc(C#N)cn4)[C@@]3(C)CC[C@@H]12 | melting point | 141 to 142 °C |
| COC[C@]12CC[C@@](C)(O)C[C@H]1CC[C@H]1[C@@H]3CC[C@H](C(=O)Cn4cc(C#N)cn4)[C@@]3(C)CC[C@@H]12 | melting point | 176 to 178 °C |
| COC[C@]12CC[C@@](C)(O)C[C@@H]1CC[C@H]1[C@@H]3CC[C@H](C(=O)CN4CCN(C)CC4)[C@@]3(C)CC[C@@H]12 | melting point | 136 to 137 °C |
| COC[C@]12CC[C@@](C)(O)C[C@@H]1CC[C@H]1[C@@H]3CC[C@H](C(=O)Cn4ncnn4)[C@@]3(C)CC[C@@H]12 | melting point | 72 to 75 °C |

====

- Tested system: [35S]-TBPS binding in rat brain cortical membranes
- Assay procedure: Steroid inhibition of [35S]-TBPS binding, rat brain cortical membranes
- Run parameters: 3 nM [35S]-TBPS, in the presence of 5 μM GABA, read-out: 35S-TBPS Radioligand Displacement (IC50)
pIC50: −log10 of the molar value.

| Record smiles | pIC50 |
| --- | --- |
| COC[C@]12CC[C@@](C)(O)C[C@H]1CC[C@H]1[C@@H]3CC[C@H](C(=O)Cn4nc5ccc(F)c(F)c5n4)[C@@]3(C)CC[C@@H]12 | > 8.00 |
| COC[C@]12CC[C@@](C)(O)C[C@@H]1CC[C@H]1[C@@H]3CC[C@H](C(=O)Cn4cc(S(C)(=O)=O)cn4)[C@@]3(C)CC[C@@H]12 | 6.30 to 7.00 |
| COC[C@]12CC[C@@](C)(O)C[C@@H]1CC[C@H]1[C@@H]3CC[C@H](C(=O)Cn4cc(C#N)cn4)[C@@]3(C)CC[C@@H]12 | 7.00 to 7.30 |
| COC[C@]12CC[C@@](C)(O)C[C@@H]1CC[C@H]1[C@@H]3CC[C@H](C(=O)Cn4nc5cccc(F)c5n4)[C@@]3(C)CC[C@@H]12 | 7.30 to 8.00 |

====

- Tested system: [35S]-TBPS binding in rat brain cortical membranes
- Assay procedure: Steroid inhibition of [35S]-TBPS binding, rat brain cortical membranes
- Run parameters: 3 nM [35S]-TBPS, in the presence of 5 μM GABA, read-out: 35S-TBPS Radioligand Displacement (IC50)
pIC50: −log10 of the molar value.
Readout name: pIC50

| Compound | Tested system | Readout name | Recorded result |
| --- | --- | --- | --- |
| COC[C@]12CC[C@@H](O)C[C@@H]1CC[C@H]1[C@@H]3CC[C@H](C(=O)Cn4cc(C)cn4)[C@@]3(C)CC[C@@H]12 [Compound 93] | [35S]-TBPS binding in rat brain cortical membranes | pIC50 | 6.30 to 7.00 |
| COC[C@]12CC[C@@](C)(O)C[C@H]1CC[C@H]1[C@@H]3CC[C@H](C(=O)Cn4ccnn4)[C@@]3(C)CC[C@@H]12 [Compound 32] | [35S]-TBPS binding in rat brain cortical membranes | pIC50 | 7.00 to 7.30 |
| COC[C@]12CC[C@@](C)(O)C[C@@H]1CC[C@H]1[C@@H]3CC[C@H](C(=O)Cn4cnnn4)[C@@]3(C)CC[C@@H]12 [Compound 15] | [35S]-TBPS binding in rat brain cortical membranes | pIC50 | 6.30 to 7.00 |
| COC[C@]12CC[C@@](C)(O)C[C@@H]1CC[C@H]1[C@@H]3CC[C@H](C(=O)Cn4ncc5cc(F)ccc54)[C@@]3(C)CC[C@@H]12 [Compound 107] | [35S]-TBPS binding in rat brain cortical membranes | pIC50 | < 6.30 |
| CCOC[C@]12CC[C@@](C)(O)C[C@@H]1CC[C@H]1[C@@H]3CC[C@H](C(=O)Cn4nnnc4C)[C@@]3(C)CC[C@@H]12 [Compound 26] | [35S]-TBPS binding in rat brain cortical membranes | pIC50 | 7.00 to 7.30 |
| C[C@@]1(O)CC[C@@]2(CO)[C@@H](CC[C@H]3[C@@H]4CC[C@H](C(=O)CN5CCN(S(C)(=O)=O)CC5)[C@@]4(C)CC[C@@H]32)C1 [Compound 7] | [35S]-TBPS binding in rat brain cortical membranes | pIC50 | < 6.30 |
| COC[C@]12CC[C@@](C)(O)C[C@@H]1CC[C@H]1[C@@H]3CC[C@H](C(=O)Cn4nc5cc(OC)cc(OC)c5n4)[C@@]3(C)CC[C@@H]12 [Compound 65] | [35S]-TBPS binding in rat brain cortical membranes | pIC50 | > 8.00 |
| COC[C@]12CC[C@@](C)(O)C[C@@H]1CC[C@H]1[C@@H]3CC[C@H](C(=O)Cn4cc5ccncc5n4)[C@@]3(C)CC[C@@H]12 [Compound 44] | [35S]-TBPS binding in rat brain cortical membranes | pIC50 | 7.30 to 8.00 |
| CCOC[C@]12CC[C@@](C)(O)C[C@@H]1CC[C@H]1[C@@H]3CC[C@H](C(=O)Cn4nc5ccc(Cl)cc5n4)[C@@]3(C)CC[C@@H]12 [Compound 72] | [35S]-TBPS binding in rat brain cortical membranes | pIC50 | 7.30 to 8.00 |
| COC[C@]12CC[C@@](C)(O)C[C@H]1CC[C@H]1[C@@H]3CC[C@H](C(=O)Cn4nc5ccc(Cl)cc5n4)[C@@]3(C)CC[C@@H]12 [Compound 76] | [35S]-TBPS binding in rat brain cortical membranes | pIC50 | > 8.00 |
| COC[C@]12CC[C@@](C)(O)C[C@@H]1CC[C@H]1[C@@H]3CC[C@H](C(=O)Cn4ccnc4F)[C@@]3(C)CC[C@@H]12 [Compound 21] | [35S]-TBPS binding in rat brain cortical membranes | pIC50 | 6.30 to 7.00 |
| COC[C@]12CC[C@@](C)(O)C[C@@H]1CC[C@H]1[C@@H]3CC[C@H](C(=O)Cn4cccn4)[C@@]3(C)CC[C@@H]12 [Compound 2] | [35S]-TBPS binding in rat brain cortical membranes | pIC50 | < 6.30 |
| COC[C@]12CC[C@@](C)(O)C[C@@H]1CC[C@H]1[C@@H]3CC[C@H](C(=O)Cn4cnc5ccccc54)[C@@]3(C)CC[C@@H]12 [Compound 46] | [35S]-TBPS binding in rat brain cortical membranes | pIC50 | 7.00 to 7.30 |
| COC[C@]12CC[C@@](C)(O)C[C@H]1CC[C@H]1[C@@H]3CC[C@H](C(=O)Cn4cc(S(C)(=O)=O)cn4)[C@@]3(C)CC[C@@H]12 [Compound 33] | [35S]-TBPS binding in rat brain cortical membranes | pIC50 | 7.30 to 8.00 |
| COC[C@]12CC[C@@](C)(O)C[C@@H]1CC[C@H]1[C@@H]3CC[C@H](C(=O)Cn4ncc5ccc(Cl)cc54)[C@@]3(C)CC[C@@H]12 [Compound 112] | [35S]-TBPS binding in rat brain cortical membranes | pIC50 | 7.00 to 7.30 |
| COC[C@]12CC[C@@](C)(O)C[C@H]1CC[C@H]1[C@@H]3CC[C@H](C(=O)Cn4nnnc4C)[C@@]3(C)CC[C@@H]12 [Compound 30] | [35S]-TBPS binding in rat brain cortical membranes | pIC50 | > 8.00 |
| COC[C@]12CC[C@@](C)(O)C[C@@H]1CC[C@H]1[C@@H]3CC[C@H](C(=O)Cn4nc5cccc(OC)c5n4)[C@@]3(C)CC[C@@H]12 [Compound 57] | [35S]-TBPS binding in rat brain cortical membranes | pIC50 | 7.00 to 7.30 |
| CC(=O)N1CCN(CC(=O)[C@H]2CC[C@H]3[C@@H]4CC[C@H]5C[C@](C)(O)CC[C@]5(CO)[C@H]4CC[C@]23C)CC1 [Compound 6] | [35S]-TBPS binding in rat brain cortical membranes | pIC50 | < 6.30 |
| COC[C@]12CC[C@@](C)(O)C[C@@H]1CC[C@H]1[C@@H]3CC[C@H](C(=O)Cn4nnc5ccc(Cl)cc54)[C@@]3(C)CC[C@@H]12 [Compound 36] | [35S]-TBPS binding in rat brain cortical membranes | pIC50 | 7.30 to 8.00 |
| COC[C@]12CC[C@@](C)(O)C[C@@H]1CC[C@H]1[C@@H]3CC[C@H](C(=O)Cn4nc5cccc(Cl)c5n4)[C@@]3(C)CC[C@@H]12 [Compound 61] | [35S]-TBPS binding in rat brain cortical membranes | pIC50 | > 8.00 |
| CCOC[C@]12CC[C@@](C)(O)C[C@@H]1CC[C@H]1[C@@H]3CC[C@H](C(=O)Cn4nnc(C)n4)[C@@]3(C)CC[C@@H]12 [Compound 25] | [35S]-TBPS binding in rat brain cortical membranes | pIC50 | 7.30 to 8.00 |
| COC[C@]12CC[C@@](C)(O)C[C@@H]1CC[C@H]1[C@@H]3CC[C@H](C(=O)Cn4ncc5cc(Cl)ccc54)[C@@]3(C)CC[C@@H]12 [Compound 105] | [35S]-TBPS binding in rat brain cortical membranes | pIC50 | < 6.30 |
| COC[C@]12CC[C@@](C)(O)C[C@@H]1CC[C@H]1[C@@H]3CC[C@H](C(=O)Cn4ccnn4)[C@@]3(C)CC[C@@H]12 [Compound 3] | [35S]-TBPS binding in rat brain cortical membranes | pIC50 | < 6.30 |
